system: OVCAR-8 ovarian; assay: NCI-60 one-dose screen, 48 h; conditions: 10 µM unless noted
This is part of a sample that, as a whole, favours compounds with a hit. Of some 83,000 tested, about 20% had one in any assay. Calls of active or inactive are those of the source. The calls were made as follows: active = growth percent below 10; inactive = the rest.
Please reply with one of these outcomes: active, inactive

Each compound tested received a call. Report the one for `Cc1ccc(-c2nc(SCC(=O)c3ccc(C#N)cc3)[nH]c(=O)c2C#N)cc1` .
inactive

Each compound tested received a call. Report the one for `CCN(CC)CCOc1ccccc1C` .
inactive

Each compound tested received a call. Report the one for `COc1cc(/C=C2/C=C(c3ccc(C(C)(C)C)cc3)N(CCc3ccc(S(N)(=O)=O)cc3)C2=O)cc(OC)c1OC` .
inactive

Each compound tested received a call. Report the one for `COc1ccc(-c2ccc(-c3ccc(C(=N)N)cn3)s2)cc1Cl` .
active

Each compound tested received a call. Report the one for `COc1cc(-c2nc3occn3c2-c2ccnc(NCCCNS(=O)(=O)c3ccc(O)cc3)n2)ccc1F` .
inactive

Each compound tested received a call. Report the one for `CN1CCN(Cc2ccc(NC(=O)c3nc4ccc5[nH]ncc5c4c4c3CCCC4)cc2C(F)(F)F)CC1` .
active

Each compound tested received a call. Report the one for `CCCCCCCCCCCCC[C@H](O)C[C@H](O)[C@H](C)N` .
inactive

Each compound tested received a call. Report the one for `O=C1C=C(Nc2ccccc2)c2ncccc2C1=O` .
active

Each compound tested received a call. Report the one for `C/C(=C(\c1ccc(OCCN2CCOCC2)cc1)c1ccc(OC(=O)C2CCCCC2)cc1)c1ccc(Cl)cc1` .
inactive

Each compound tested received a call. Report the one for `Cc1ccc(-c2nc3nc(-c4ccccc4)nc(N4CCCNCC4)c3o2)cc1` .
active

Each compound tested received a call. Report the one for `CCCNNC(=O)/C=C/c1ccc(CNCCc2c(C)[nH]c3ccccc23)cc1` .
inactive

Each compound tested received a call. Report the one for COc1c(O)c(O)cc2c3c(oc12)CC(c1ccc2c(c1)OCO2)CC3=O (stereo not given) .
inactive

Each compound tested received a call. Report the one for `Cc1nc2cccc(NCCCCC(=O)NO)c2c(=O)n1-c1ccccc1` .
inactive

Each compound tested received a call. Report the one for `N#C/C(=C\c1ccccc1Cl)c1cc2ccccc2[nH]1` .
inactive

Each compound tested received a call. Report the one for `Cc1cccc(Cc2cnc(NC(=O)CCCOc3ccc(Cl)cc3)s2)c1` .
inactive

Each compound tested received a call. Report the one for `CC1=C2[C@@H](CC1)[C@]1(C)O[C@@](C3CC3)(C[C@H]1OC(=O)CO)[C@H]2OC(=O)/C=C/c1ccccc1` .
active

Each compound tested received a call. Report the one for `Cc1ccc(/C=C(\C#N)c2cc3ccccc3[nH]2)cc1` .
inactive

Each compound tested received a call. Report the one for `CSc1nnc(-c2cc3c([nH]c4ccccc43)c(-c3cccc(O)c3)n2)n1-c1ccc(C)cc1` .
inactive

Each compound tested received a call. Report the one for `CC/C(=C(/c1ccc(O)cc1)c1ccc(OCCN2CCCCCC2)cc1)c1ccc(Cl)cc1` .
inactive

Each compound tested received a call. Report the one for `O=C1C(c2c[nH]c3ccccc23)=C(c2coc3cc(Br)ccc23)C(=O)N1O` .
inactive

---

System: MOLT-4 leukemia
Assay: NCI-60 one-dose screen, 48 h (100 = growth as untreated, 0 = no growth, -100 = all killed)
Details: 10 µM unless noted
Experimental: Growth inhibition of the MOLT-4 human tumor cell line is measured as a screen for anti-cancer activity. Cells are grown in 96 well plates and exposed to the test compound for 48 hours. Compounds are tested at a single concentration, which is 10^-5 M for most compounds. The reported endpoint is percent growth (GI% or GIPRCNT), where numbers from 0 - 100% represent growth inhibition, and numbers from -100% - 0 represent cell death. For example, a value of 40 represents 60% growth inhibition. […]
This is part of a sample that, as a whole, favours compounds with a hit. Of some 83,000 tested, about 20% had one in any assay.
Consider the following molecules; for each one, report its growth.
Your answer should be a plain number; it is taken to be in %.

May I ask what growth has been recorded for `Nc1n[nH]c2cccc(C#Cc3cccc(C(=O)Nc4ccc(CN5CCOCC5)c(C(F)(F)F)c4)c3)c12` ?
16.9

May I ask what growth has been recorded for `Cc1c(C(C)(C)O)cn2ncnc(Oc3ccc(NC(=O)Nc4ccc(Cl)c(C(F)(F)F)c4)cc3)c12` ?
18.2

May I ask what growth has been recorded for Cc1cnc(C(=O)NNc2nc3sc4c(c3c(=O)[nH]2)C(C)CCC4)cn1 (stereo not given) ?
15.7

May I ask what growth has been recorded for Cc1nc2sc(C(=O)Nc3cccc(Cl)c3C)c(N)c2cc1C(O)c1ccccc1 (stereo not given) ?
13

May I ask what growth has been recorded for `Cc1ccc(S(=O)(=O)Nc2cc(Sc3ccccc3)c(O)c3ccccc23)cc1` ?
-32.2

May I ask what growth has been recorded for O=C(CC1(O)C(=O)Nc2ccc(Br)cc21)c1ccc(Cl)cc1 (stereo not given) ?
101

May I ask what growth has been recorded for `O=C1/C(=C/c2ccc(-c3cccc(C(F)(F)F)c3)o2)SC(=S)N1CCc1ccc(O)cc1` ?
37

May I ask what growth has been recorded for `N#Cc1cc(-c2ccnc(Nc3ccc(NC(=O)CCl)cc3)n2)ccc1N1CCCC1` ?
-7.09

May I ask what growth has been recorded for N#CC1=C(N)Oc2c(sc3c(Br)cccc23)C1c1ccccn1 (stereo not given) ?
28.9

May I ask what growth has been recorded for `CCOc1nc(-c2ccccc2)cc2c(O)c(C(=O)N/N=C/c3ccc(N(C)C)cc3)[nH]c(=O)c12` ?
95.1

May I ask what growth has been recorded for `Brc1ccc(/C=C(/C2=NCCN2)n2ccc3ccccc32)cc1` ?
9.21

May I ask what growth has been recorded for `COc1ccc(S(=O)(=O)Nc2cc(Sc3cccc4cccnc34)c(O)c3ccccc23)cc1` ?
-4.51

May I ask what growth has been recorded for `CCNC(=O)Nc1ncccc1OCc1ccc(F)cc1` ?
98

May I ask what growth has been recorded for `CCC(=O)Oc1cc(Cl)c(Cl)cc1Cl` ?
111

May I ask what growth has been recorded for O=C(NNc1ccccc1)C1CCCN1 (stereo not given) ?
44.3

May I ask what growth has been recorded for `CCCCC#Cc1c(/C=C(\CCCC)SCC)n(C)c(=O)[nH]c1=O` ?
62.1

May I ask what growth has been recorded for Fc1ccc(NC(c2ccc(F)cc2)C2CCN(CCCCc3ccccc3)CC2)cc1 (stereo not given) ?
4.36

May I ask what growth has been recorded for `Cc1cccc(-c2nnc(SCC(=O)Nc3ncc(Cc4ccccc4)s3)n2N2C(=O)CSC2=S)c1` ?
87.5

May I ask what growth has been recorded for `CCN1CCN(C(=O)[C@]23CC[C@@H](C)[C@H](C)[C@@H]2C2=CC[C@@H]4[C@@]5(C)CCC(=O)C(C)(C)[C@@H]5CC[C@@]4(C)[C@]2(C)CC3)CC1` ?
-15.9

May I ask what growth has been recorded for `COc1ccc2c(c1)c(-c1nc(-c3c[nH]c4c(Cl)nccc34)cs1)cn2C` ?
85

---

Tested on: HCC-2998 colon
Assay: NCI-60 one-dose screen, 48 h (100 = growth as untreated, 0 = no growth, -100 = all killed)
Conditions: 10 µM unless noted
Method: Growth inhibition of the HCC-2998 human tumor cell line is measured as a screen for anti-cancer activity. Cells are grown in 96 well plates and exposed to the test compound for 48 hours. Compounds are tested at a single concentration, which is 10^-5 M for most compounds. The reported endpoint is percent growth (GI% or GIPRCNT), where numbers from 0 - 100% represent growth inhibition, and numbers from -100% - 0 represent cell death. For example, a value of 40 represents 60% growth inhibition. […]
Compounds without any hit were thinned out: in the full panel of roughly 83,000, 20% have a hit.
Consider the following molecules; for each one, report its growth.
Your answer should be a plain number; it is taken to be in %.

Short answer please: growth, HCC-2998 colon, entry `N=C(N)SCc1c2ccccc2c(CSC(=N)N)c2ccccc12`
79.5

Short answer please: growth, HCC-2998 colon, entry COc1ccc2nc3cc(Cl)ccc3c(NCCCNCCC(C)O)c2c1 (configuration not stated)
-60.9

Short answer please: growth, HCC-2998 colon, entry `O=S(=O)(Nc1ccc(F)cc1)c1ccc(-c2cnc(C3CC3)o2)cc1`
56.4

Short answer please: growth, HCC-2998 colon, entry `COc1ccc(-c2c[nH]c(C(=O)O)c2-c2cc(OC)c(OC)c(OC)c2)cc1`
84.6

Short answer please: growth, HCC-2998 colon, entry `COCCn1cc(-c2nc(-c3cn(CCOC)c4ncccc34)cs2)c2ccccc21`
42.2

Short answer please: growth, HCC-2998 colon, entry `Cc1ccc(-c2nc(SCC(=O)c3ccc(C#N)cc3)[nH]c(=O)c2C#N)cc1`
107

Short answer please: growth, HCC-2998 colon, entry COc1ccc(C(c2cc(OC)c(OC)c(OC)c2)n2ccnc2)cc1O (configuration not stated)
25

Short answer please: growth, HCC-2998 colon, entry CCN1C(=S)N(CC)C2C1NC(=S)N2/N=C/C=C/c1ccccc1 (configuration not stated)
56.7

Short answer please: growth, HCC-2998 colon, entry `CCCCn1c(C(=O)c2c[nH]c3ccccc23)n[nH]c1=S`
101

Short answer please: growth, HCC-2998 colon, entry `CN1CCN(c2ccc(Nc3ncc(C(N)=O)c(NCCCNC(=O)C4CCC4)n3)cc2)CC1`
85.6

Short answer please: growth, HCC-2998 colon, entry `CN1CCN(c2ccc(/C=C/C(=O)c3ccc(O)cc3)cc2)CC1`
102

Short answer please: growth, HCC-2998 colon, entry `COC(=O)/C=C1/SC(=Nc2ccc([N+](=O)[O-])cc2)N(CCc2c[nH]c3ccccc23)C1=O`
78.3

Short answer please: growth, HCC-2998 colon, entry `COc1ccc(-c2nn3c(-c4cc(F)c(Cl)cc4Cl)nnc3s2)cc1`
42.1

Short answer please: growth, HCC-2998 colon, entry `CC(C)=CCc1cc(O)c(O)c2oc3cc(O)cc(O)c3c(=O)c12`
104

Short answer please: growth, HCC-2998 colon, entry `COc1ccc2c(c1)c(C(=O)c1nc(-c3cn(C)c4ccccc34)no1)cn2C`
95.3

Short answer please: growth, HCC-2998 colon, entry `COc1ccc(S(=O)(=O)Nc2cc(Sc3cccc4cccnc34)c(O)c3ccccc23)cc1`
38.6

Short answer please: growth, HCC-2998 colon, entry N#CC1=C(N)Oc2c(sc3c(Br)cccc23)C1c1ccccn1 (configuration not stated)
72.9

Short answer please: growth, HCC-2998 colon, entry `NC(=O)c1c(NC(=O)/C=C/c2cccs2)sc2c1CCC(=O)C2`
85.2

Short answer please: growth, HCC-2998 colon, entry `CCN(CC)CCOc1ccccc1C`
107

Short answer please: growth, HCC-2998 colon, entry `Cn1cc(-c2csc(-c3c[nH]c4ccc(F)cc34)n2)c2cnccc21`
-54.9

Short answer please: growth, HCC-2998 colon, entry `O=[N+]([O-])c1cc(C(F)(F)F)ccc1Sc1ccc(C(F)(F)F)cc1[N+](=O)[O-]`
99.4

Short answer please: growth, HCC-2998 colon, entry Cn1ccnc1CN1CCSC(C(=O)Nc2ccccc2)C1 (configuration not stated)
98.6
